Test system: MS2 coat protein
Assay: apparent KD of MS2 coat protein; higher = weaker reporter binding
Conditions: Eterna round: R107; input ligand: none
Please mark 1 (yes) if the recorded apparent KD of MS2 coat protein is equal to or greater than 50 nM, and 0 (no) if it falls below.

item_sequence="CUCCCGUGGUCGGCCGCCACUGGAGGCCUCGCGCGACAUGAGGAUCACCCAUGUUGGCCCGGCGUCAGGACCGGGAUCGCGUGAG [#1 Same State - Tryptophan B Attempt #9 (HarryS)]" tested_on="MS2 coat protein" category="0 (no)"
item_sequence="ACGUAAUGCAGAAGGAGCGUCAUUUUAAAACAUGAGGAUCACCCAUGUAAUAUUUUUGUGUGACAGGUAGGUCGCUGAAGUACGA [JR_SSArginiB_Sub007]" tested_on="MS2 coat protein" category="0 (no)"
item_sequence="UAUCCACAUGAGGAUCACCCAUGUUAGGAAGGAGCGGUGAAUGCACCAGGUAGGUCGCCUAGCUGAGGACUGUCGAUGGAUUCGU [Exclusion - Arginine A (Freestyle 18)]" tested_on="MS2 coat protein" category="0 (no)"
item_sequence="CAUAUAUAUUGAAGGAGCGUCGAAAAUGGGUAAACAUGAGGAUCACCCAUGUAAAGGGAACGACAGGUAGGUCGCAAUAUAUAUG [AstromonsSSArgB#4]" tested_on="MS2 coat protein" category="1 (yes)"

* * *

Test system: MS2 coat protein
Experiment: apparent KD of MS2 coat protein; designed switch direction (-1 OFF switch, 1 ON switch): -1; higher = weaker reporter binding
Conditions: input ligand: none
Value type: apparent KD of MS2 coat protein (nM)

item_sequence="UUCGAGGCAGGAUAUGCGUAGCCACGGAGGAUCACCAAGUAACAUGAGGAUCACCCAUGUAGAAGGGCUAGAGC [Eternabot (L1) Solution 26] (Eterna round: R97, puzzle: Exclusion 2)" observed_measurement=76.4
item_sequence="AACAUGUUAGGAUAUGGUCCUGUGCCACAUGGAGGUUUAGGUUAGAAGGGACAUGAGGAUCACCCAUGUUAAAU [Eternabot (L2) Solution 39] (Eterna round: R97, puzzle: Exclusion 4)" observed_measurement=183
item_sequence="AUAAAUCAUGUAGGAUAUGCGUGGCAAAGCUAUGCAGAAGGACAUGAGGAUCACCCAUGUGCUUCCGUCUGAGAACAGACGGUA [Mat - Exclusion NG 1 - Mod of JL - D24] (Eterna round: R96, puzzle: Exclusion NG 1)" observed_measurement=82.3
item_sequence="GCAGAAUGAGUUAGGAUAUGAUGAUUUUUUUUAUAUCAGAAGGAACUUGAGGAUCACCCAAGUUAAGAUAGGGU [JR_BMEx4_Sub067] (Eterna round: R97, puzzle: Brourd's mod of Exclusion 4)" observed_measurement=138
item_sequence="UUAAUUAAUUGCGCAAGAUCACAUGAGGAUCACCCAUGUAUAUAGGAUAUCAGCUCGAUUAGAGCUGAGAAGGAUAUACAGCGC [ExNG3/3-A1] (Eterna round: R96, puzzle: Exclusion NG 3)" observed_measurement=313

* * *

Test system: MS2 coat protein
Experiment: apparent KD of MS2 coat protein; higher = weaker reporter binding
Conditions: Eterna round: R107; input ligand: theophylline 2 mM
Value type: apparent KD of MS2 coat protein (nM)

item_sequence="GUCCGCAGCCGAAGGAGCGCUAGAAGGUGACAUGAGGAUCACCCAUGUGUGUGAUGUGGCUAGCAGGUAGGUCGCGGAGCGGAUU [Exclusion - Arginine B (Freestyle 18)]" tested_on="MS2 coat protein" value_type="apparent KD of MS2 coat protein" observed_measurement=76.7
item_sequence="UUGACAUGAGGAUCACCCAUGUUAGCUGAAGGAGCGAGGUAGUACUCAGGUAGGUCGCAGAGAGCAGAGUUAGUUGUUCUCAUGU [X-ArgiA-ms2@4]" tested_on="MS2 coat protein" value_type="apparent KD of MS2 coat protein" observed_measurement=23.3
item_sequence="GGGCCUAUAAGCAGGCCCACAGCGGGUGAUACCAGCAAUAAAACUUGCCCUUGGCAGCACACAGCUACAUGAGGAUCACCCAUGU [Beator]" tested_on="MS2 coat protein" value_type="apparent KD of MS2 coat protein" observed_measurement=70.6
item_sequence="UUGUGGUAGGCGCAUACUCAUUUAUACAAGCGAGGACCGGUACGGCCGCCACUCGGAAUAAAACAUGAGGAUCACCCAUGUACCG [theeternabot_exclusion_MS2_Trp_A_50]" tested_on="MS2 coat protein" value_type="apparent KD of MS2 coat protein" observed_measurement=14.6
item_sequence=UGUAUGGACUGAAGGAGCGGAAGAUAGCUUGAGGAUCACCCAAGUAAUAAGGCGAAAGCCUUCCAGGUAGGUCGCAGUCCAUACU tested_on="MS2 coat protein" value_type="apparent KD of MS2 coat protein" observed_measurement=38
item_sequence="AUUGACGUUGCGGCCGCCACUAGGCGUUCCCGGACAUGAGGAUCACCCAUGUGCUAGAGUGUAACUAGGACCGGGUAACCUCAGC [Verevean]" tested_on="MS2 coat protein" value_type="apparent KD of MS2 coat protein" observed_measurement=260
item_sequence="CUGUACAUCUCGGCCGCCACUGCAACAUGUACACAUGGACAUGUACAUGAGGAUCACCCAUGUGGCAGGACCGGGAGGUGUGCAG [SSTryp B #28]" tested_on="MS2 coat protein" value_type="apparent KD of MS2 coat protein" observed_measurement=309
item_sequence="CAAAGUUCGUCUCUGGUCCUCUAAUCGGCUCGAGGACCGGUACGGCCGCCACUCGCCCGACAUGAGGAUCACCCAUGUCUGUAAA [Dilaanis]" tested_on="MS2 coat protein" value_type="apparent KD of MS2 coat protein" observed_measurement=16.8
item_sequence="AAUGAGUGGUGGUCAAACAUGGGUGAUCAACGAGGACCGGUACGGCCGCCACUCGAUAACAUGAGGAUCACCCAUGUAAUAAUAA [|T'-M'-Trp-Ms2|_Design9]" tested_on="MS2 coat protein" value_type="apparent KD of MS2 coat protein" observed_measurement=683
item_sequence="CUCCCGUGGUCGGCCGCCACUGGAGGCCUUGCGCGACAUGAGGAUCACCCAUGUUGGCCCGGCGUCAGGACCGGGAUCGCGUGAG [#1 Same State - Tryptophan B Attempt #10 (HarryS)]" tested_on="MS2 coat protein" value_type="apparent KD of MS2 coat protein" observed_measurement=12.2
item_sequence="GUACAUGAGGAUCACCCAUGUAUAGUUGAAGGAGCGACCGGUGGGUCAGGUAGGUCGCAGCACAUGGCGUCAACCCGUGUAUGCC [#1 Exclusion - Arginine A Attempt #26 (Inspired by Pi)]" tested_on="MS2 coat protein" value_type="apparent KD of MS2 coat protein" observed_measurement=22.1
item_sequence="AUAACAUGAGGAUCACCCAUGUAUUGGUUACGAGGACCGGUACGGCCGCCACUCGUAUUUUGGUGGUAUUUUGUAUAUAUGAUAA [JR_SSTryptoA_Sub018]" tested_on="MS2 coat protein" value_type="apparent KD of MS2 coat protein" observed_measurement=36.5

# credit: the supplement of paper PMC9170038
